# target.system: Epidermal growth factor receptor (Homo sapiens) (UniProt P00533)
# Sequence (P00533 whole entry, looked up): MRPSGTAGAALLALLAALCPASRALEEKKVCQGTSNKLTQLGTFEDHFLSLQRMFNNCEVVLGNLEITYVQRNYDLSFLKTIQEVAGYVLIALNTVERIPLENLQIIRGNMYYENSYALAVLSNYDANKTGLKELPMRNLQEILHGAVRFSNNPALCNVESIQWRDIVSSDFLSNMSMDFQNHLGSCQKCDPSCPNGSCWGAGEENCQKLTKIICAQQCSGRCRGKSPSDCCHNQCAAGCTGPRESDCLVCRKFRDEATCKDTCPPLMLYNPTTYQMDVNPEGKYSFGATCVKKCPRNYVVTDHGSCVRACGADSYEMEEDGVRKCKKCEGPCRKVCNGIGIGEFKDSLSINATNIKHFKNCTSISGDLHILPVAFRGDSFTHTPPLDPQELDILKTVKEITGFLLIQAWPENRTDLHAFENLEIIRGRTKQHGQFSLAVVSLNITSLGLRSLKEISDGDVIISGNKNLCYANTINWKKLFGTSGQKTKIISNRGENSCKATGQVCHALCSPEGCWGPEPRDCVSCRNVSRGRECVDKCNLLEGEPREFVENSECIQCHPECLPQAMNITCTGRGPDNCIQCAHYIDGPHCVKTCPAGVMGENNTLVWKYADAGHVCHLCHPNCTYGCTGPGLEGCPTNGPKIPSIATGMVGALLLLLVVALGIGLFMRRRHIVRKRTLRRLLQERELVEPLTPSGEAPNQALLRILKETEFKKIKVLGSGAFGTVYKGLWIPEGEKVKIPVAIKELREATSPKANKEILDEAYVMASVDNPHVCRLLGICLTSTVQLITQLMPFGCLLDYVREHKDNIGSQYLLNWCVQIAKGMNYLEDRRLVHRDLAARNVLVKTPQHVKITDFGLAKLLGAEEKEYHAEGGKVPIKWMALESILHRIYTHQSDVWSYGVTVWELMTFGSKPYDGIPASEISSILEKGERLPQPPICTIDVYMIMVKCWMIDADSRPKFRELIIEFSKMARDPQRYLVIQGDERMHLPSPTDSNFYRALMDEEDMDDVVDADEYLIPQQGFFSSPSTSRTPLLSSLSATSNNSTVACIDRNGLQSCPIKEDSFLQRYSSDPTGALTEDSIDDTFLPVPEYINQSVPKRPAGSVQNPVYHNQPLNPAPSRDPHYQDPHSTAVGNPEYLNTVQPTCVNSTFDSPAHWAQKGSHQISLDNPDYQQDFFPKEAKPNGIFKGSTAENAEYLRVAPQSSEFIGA
# assay.info: EGFR binders on small-molecule microarrays, primary screen, biochemical, small-molecule microarray, 635 nm fluorescence (AID 1104);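 also: score merges 667 nm emission intensity with spot signal to noise over triplicate slides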
# applied.conditions: EGFR binding, higher = more signal

compound | composite z-score
CCOC(=O)NN=C1C[C@@H](O)[C@@H](O)[C@@H]2[C@@H]3C(=O)N(C(C)(C)C)C(=O)[C@@H]3CC[C@H]12 | 0.705
Cc1cc2c(nc1C)CCCN2CC(O)CN1CCCc2nc(C)c(C)cc21 | 0.36
COc1cccc([C@H]2Oc3ccc(OC)cc3C(=NO[C@@H]3O[C@H](COC(C)=O)[C@@H](OC(C)=O)[C@H](OC(C)=O)[C@H]3OC(C)=O)[C@@H]2O)c1 | 0.344
CC(C)=CCCC(C)=CCON=C1C[C@@H](O)[C@@H](O)[C@@H]2[C@@H]3C(=O)N(c4ccc(F)cc4F)C(=O)[C@@H]3CC[C@H]12 | 0.531
CO[C@@H]1C=CCC(=O)N2CCC[C@H]2C(=O)OC[C@@H](C)C(=O)OC[C@H]1C | 0.521
CO[C@H]1COC(=O)[C@@H]2CCCN2C(=O)CC=C[C@@H](C)[C@H](OC)COC(=O)[C@@H](OCc2ccccc2)C=C[C@@H]1C | 0.547
CCOC(=O)[C@H](Cc1ccccc1)NC(=O)CCC1CC(OC(=O)NCCc2ccc(F)cc2)CC2(CCCC(COC(=O)NCCc3ccc(Cl)cc3)O2)O1 (some centres not stated) | 0.401

----------
# assay.info: mitochondrial membrane potential change in A549 cells, profiling panel, cell-based, JC-1 fluorescence, basal, 24 h, 100 nL (AID 1138);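 also: A549 lung adenocarcinoma cells under basal conditions with no added stimulus; test concentration not given here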
# applied.conditions: higher = more signal
Threshold rule: z-score greater than or equal to -0.1 is class 1; below that, class 0.

molecule | label
C#CCCCON=C1C[C@@H](O)[C@@H](O)[C@@H]2[C@@H]3C(=O)N(CCC(=O)OCC)C(=O)[C@@H]3CC[C@H]12 | class 1
C[C@@H]1CC[C@H]2C(=O)O[C@@H](COc3ccc(C(C)(C)C)cc3)CN2[C@@H]1c1ccc(Br)cc1 | class 1
C=C(C)C(=O)OCC1CN2[C@@H](CC[C@@H](C)[C@@H]2c2ccc(Br)cc2)C(=O)O1 (stereo partly specified) | class 1
CC(C)CON=C1C[C@@H](O)[C@@H](O)[C@@H]2[C@@H]3C(=O)N(C[C@@H]4CCCO4)C(=O)[C@@H]3CC[C@@H]12 | class 1
C#CCCCON=C1C[C@@H](O)[C@@H](O)[C@@H]2[C@@H]3C(=O)N(C(C)(C)C)C(=O)[C@@H]3CC[C@@H]12 | class 0
O=C1C=C[C@@H](O)[C@@H]2[C@@H]3C(=O)N(C[C@@H]4CCCO4)C(=O)[C@@H]3CC[C@@H]12 | class 0
Cc1cc2c(nc1C)CCCN2CC(O)CN1CCCc2nc(C)c(C)cc21 | class 0
COC(=O)C1=C(C)N(Cc2ccccc2)[C@]23O[C@](C(=O)OC)(C(=O)N2[C@@H]1c1ccccc1)C(C(=O)OC)=C3C(=O)OC | class 0
COc1cccc([C@@H]2Oc3ccc(OC)cc3C(=O)[C@H]2O)c1 | class 0
O=C1C[C@@H](O)[C@@H](O)[C@@H]2[C@@H]3C(=O)N(Cc4ccccc4)C(=O)[C@@H]3CC[C@@H]12 | class 0
COc1ccc(O[C@H]2C=C[C@@H](c3ccccc3)O[C@@H]2COC(=O)CCC(C)=NO[C@@H]2O[C@H](COC(C)=O)[C@@H](OC(C)=O)[C@H](OC(C)=O)[C@H]2OC(C)=O)cc1 | class 0
C=Cc1ccc([C@H]2N[C@H](C(=O)O)CC[C@@H]2C)cc1 | class 1
COC(=O)C=CCCc1coc(C=CCNC(=O)OC)n1 | class 0
C=CC[C@@H]1C=C[C@H](ON=C2[C@H]3CCn4c(=O)n(-c5ccccc5)c(=O)n4[C@H]3[C@H](O)[C@@H]3O[C@H]23)[C@@H](CO)O1 | class 0
CC(C)=CCCC(C)=CCON=C1C[C@@H](O)[C@@H](O)[C@@H]2[C@@H]3C(=O)N(Cc4ccccc4)C(=O)[C@@H]3CC[C@@H]12 | class 1
CCCNC(=O)OC[C@H]1O[C@H](CCON=C(C)C)C=C[C@@H]1Oc1ccc(OC)cc1 | class 0
